All values here come from ChEMBL document CHEMBL1142983.

Can you tell me Ki for the items I'm about to list?
Please give a number only; it is taken to be in nM.

# input Record lookup: for Carbonic anhydrase 2 (Homo sapiens, UniProt P00918), what Ki belongs to NS(=O)(=O)c1ccc(-n2cc(CO[C@@H]3O[C@H](CO)[C@H](O)[C@H](O)[C@H]3O)nn2)cc1 ?
# output 53

# input What is its Ki for Carbonic anhydrase 2 (Homo sapiens, UniProt P00918)? Entry: CC(=O)O[C@H]1[C@H](OC(C)=O)C(OCc2cn(-c3ccc(S(N)(=O)=O)cc3)nn2)OC[C@H]1OC(C)=O (stereo partly drawn)
# output 9.3

# input Form: Entry = NS(=O)(=O)c1ccc(-n2cc(COC3OC[C@@H](O)[C@@H](O)[C@@H]3O)nn2)cc1 (stereo partly drawn) | System = Carbonic anhydrase 2 (Homo sapiens, UniProt P00918) | Ki = ____
# output 6.9
